Assay: self-splicing fitness, log relative to wild type (ln ratio); higher = more splicing; Tetrahymena group I intron in knt gene, E. coli kanamycin selection, DiMSum; sequences stand for … in CUCUCU…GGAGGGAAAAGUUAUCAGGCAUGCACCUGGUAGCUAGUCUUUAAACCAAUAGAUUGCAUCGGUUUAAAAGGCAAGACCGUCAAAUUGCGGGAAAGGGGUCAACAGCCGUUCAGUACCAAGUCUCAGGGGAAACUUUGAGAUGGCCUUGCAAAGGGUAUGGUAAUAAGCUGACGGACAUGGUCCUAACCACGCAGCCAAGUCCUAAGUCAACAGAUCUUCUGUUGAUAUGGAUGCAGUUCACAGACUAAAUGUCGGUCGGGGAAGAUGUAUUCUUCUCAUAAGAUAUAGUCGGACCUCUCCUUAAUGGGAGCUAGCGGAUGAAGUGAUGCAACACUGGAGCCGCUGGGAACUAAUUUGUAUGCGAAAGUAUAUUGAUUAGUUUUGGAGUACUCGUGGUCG;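 also: selection with 25 µg/mL kanamycin versus none on LB agar overnight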
Conditions: 37 °C
The threshold is inclusive: self-splicing fitness (ln) of exactly -0.8 counts as MET; values below receive NOT MET.

These recorded examples may help you get a feel for the data.
• ACUUAGCAAUAUUACGGGUA = NOT MET
• UAACAGCAAUAUUACGCGAA = NOT MET
• ACAGAGCAAUAUUACGUUAG = NOT MET
• ACUAAGCAAUAUUACGCGCU = MET
• UAGCAGCAAUAUUACGAGCG = MET

Hi team, for "AAGUAGCAAUAUUACGUAAA" , is the recorded self-splicing fitness (ln) at or above -0.8? MET

Hi team, for "GAUAAGCAAUAUUACGGCUC" , is the recorded self-splicing fitness (ln) at or above -0.8? MET

Hi team, for "GUCUAGCAAUAUUACGUUGC" , is the recorded self-splicing fitness (ln) at or above -0.8? MET

Hi team, for "UCUCAGCAAUAUUACGGUCG" , is the recorded self-splicing fitness (ln) at or above -0.8? NOT MET

Hi team, for "UUGGAGCAAUAUUACGUGCG" , is the recorded self-splicing fitness (ln) at or above -0.8? MET

Hi team, for "CGACAGCAAUAUUACGGAGA" , is the recorded self-splicing fitness (ln) at or above -0.8? NOT MET

Hi team, for "UUCUAGCAAUAUUACGUAUG" , is the recorded self-splicing fitness (ln) at or above -0.8? NOT MET

Hi team, for "CAUGAGCAAUAUUACGCAAA" , is the recorded self-splicing fitness (ln) at or above -0.8? NOT MET
